- experimental target: human Adenosine A2a receptor (Homo sapiens, UniProt P29274)
- Sequence (P29274 whole entry): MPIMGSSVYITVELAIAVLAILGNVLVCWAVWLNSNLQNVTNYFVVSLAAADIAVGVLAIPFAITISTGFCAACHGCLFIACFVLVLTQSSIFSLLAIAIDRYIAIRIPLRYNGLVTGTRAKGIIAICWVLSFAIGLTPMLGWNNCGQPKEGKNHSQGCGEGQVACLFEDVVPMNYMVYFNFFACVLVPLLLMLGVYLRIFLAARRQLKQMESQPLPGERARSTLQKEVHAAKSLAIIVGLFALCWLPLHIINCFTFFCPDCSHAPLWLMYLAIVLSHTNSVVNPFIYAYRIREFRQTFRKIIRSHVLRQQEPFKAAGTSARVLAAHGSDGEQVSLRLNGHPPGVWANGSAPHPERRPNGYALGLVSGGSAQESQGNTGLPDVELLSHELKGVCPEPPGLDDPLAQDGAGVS
pKi: −log10 of the molar value. Structures can show the parent of a compound that is named as a salt.
Threshold check on pKi: at or above 9 gives TRUE, strictly below gives FALSE.

Observe how each entry below is paired with its result.
{"compound": "Cc1cc(-c2c(-c3cccc(C#N)c3)nn3ccc(C(=O)NCC(C)(C)O)nc23)cc(C(F)(F)F)n1 [Example 12.9]", "experimental target": "human Adenosine A2a receptor (Homo sapiens, UniProt P29274)", "assigned category": "TRUE"}
{"compound": "N#Cc1c(-c2ccco2)nn2ccc(N3CCN(CCO)CC3)nc12 [Example 52]", "experimental target": "human Adenosine A2a receptor (Homo sapiens, UniProt P29274)", "assigned category": "FALSE"}

# bool: pKi of CCn1nccc1-c1c(-c2cccc(C#N)c2)nn2ccc(N3CCN(S(C)(=O)=O)CC3)nc12 [Example 33.4] >= 9
FALSE

# bool: pKi of Cc1cc(-c2c(-c3cccc(C#N)c3)nn3ccc(NC4CN5CCC4CC5)nc23)cc(Cl)n1 (stereo not shown) [Example 2.17] >= 9
FALSE

# bool: pKi of COc1cc(-c2c(-c3cccc(C#N)c3)nn3ccc(N)nc23)cc(C)n1 [Example 26.2] >= 9
FALSE

# bool: pKi of CC(C)(C)OC(=O)N1CCO[C@H](CNc2ccn3nc(-c4ccco4)c(C#N)c3n2)C1 [Example 37.5] >= 9
FALSE

# bool: pKi of Cc1cc(-c2c(-c3cccc(C#N)c3)nn3ccc(C(=O)NC(C)(C)C#N)nc23)cc(Cl)n1 [Example 6.21] >= 9
TRUE

# bool: pKi of Cc1cc(-c2c(-c3cccc(C#N)c3)nn3ccc(N[C@H]4C[C@H](O)C4)nc23)cc(Cl)n1 [Example 2.18] >= 9
FALSE

# bool: pKi of Cc1cc(-c2c(-c3cccc(C#N)c3)nn3ccc(C(=O)N4CCNCC4)nc23)cc(Cl)n1 [Example 7.12, hydrochloride] >= 9
FALSE

# bool: pKi of Cc1cc(-c2c(-c3cccc(C#N)c3)nn3ccc(NCC(C)(C)O)nc23)cc(C)n1 [Example 23.2] >= 9
FALSE

# bool: pKi of Cc1cc(-c2c(-c3cccc(C#N)c3)nn3ccc(NCC4(O)CC4)nc23)cc(Cl)n1 [Example 3.4] >= 9
TRUE

# bool: pKi of Cc1cc(-c2c(-c3cccc(C#N)c3)nn3ccc(C(=O)NCC(C)(C)N)nc23)cc(Cl)n1 [Example 6.1] >= 9
FALSE

# bool: pKi of Brc1c(-c2ccco2)nn2ccc(NCc3ccccc3)nc12 [Example 44] >= 9
FALSE

----------
Sequence of the target: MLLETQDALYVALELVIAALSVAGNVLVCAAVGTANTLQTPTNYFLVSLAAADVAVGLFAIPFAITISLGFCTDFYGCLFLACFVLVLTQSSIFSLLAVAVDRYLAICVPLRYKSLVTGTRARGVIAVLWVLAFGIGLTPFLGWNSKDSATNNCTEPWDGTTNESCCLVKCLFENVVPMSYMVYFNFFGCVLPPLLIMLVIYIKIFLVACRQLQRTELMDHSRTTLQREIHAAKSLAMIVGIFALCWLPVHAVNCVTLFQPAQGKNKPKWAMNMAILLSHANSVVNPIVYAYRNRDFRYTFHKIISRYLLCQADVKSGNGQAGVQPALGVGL
Where a name gives a salt, the structure may show the parent alone.
Please go through the items and note down their pKi.
Answers are plain numbers, as −log10 of the molar value.

I have 7 compounds here; please give me pKi for each one.
1. Cc1cc(-c2c(-c3cccc(C#N)c3)nn3ccc(C(=O)NC(C)(C)CO)nc23)cc(Cl)n1 [Example 6.22]
2. Cc1cc(-c2c(-c3cccc(C#N)c3)nn3ccc(C(=O)N[C@H]4CNC[C@@H]4O)nc23)cc(Cl)n1 [Example 7.5]
3. CCn1nccc1-c1c(-c2cccc(C#N)c2)nn2ccc(N)nc12 [Example 1.3]
4. Cc1cc(-c2c(-c3cccc(C#N)c3)nn3ccc(N4CCC4C(=O)O)nc23)cc(Cl)n1 (stereo not shown) [Example 2.34]
5. Cc1cc(-c2c(-c3cccc(C#N)c3)nn3ccc(C(=O)N[C@@H]4CCNC4)nc23)cc(Cl)n1 [Example 7.13, hydrochloride]
6. Cc1cc(-c2c(-c3cccc(C#N)c3)nn3ccc(NC(=O)N[C@@H]4CCNC4)nc23)cc(Cl)n1 [Example 31.3, trifluoroacetate]
7. Cc1cc(-c2c(-c3cccc(C#N)c3)nn3ccc(C(=O)NC4CNC(=O)C4)nc23)cc(C)n1 (stereo not shown) [Example 92.25]

8.30
8.30
7.80
6.79
7.55
8.30
7.16
